Target: BQ.1.1 spike protein (SARS-CoV-2 variant BQ.1.1, UniProt P0DTC2 14-1273)
Test: cell-based or functional assay
Kindly supply the reported IC50 (pVNT) values for the records listed here.

Tell us which IC50 (pVNT) value is on record for Ab42 (10x-L8N-c41) (antibody, V domains shown) VH: EVQLLESGGGLVQPGGSLRLSCAGSGFTFSSYAMSWVRQAPGKGLEWVSSISSSGGLTFYADSVRGRSTISRDHSRNTLYLQMNSLRAEDTALYYCAREQGDSYDDYFDYWGQGTLVTVSS VL: DIQMTQSPSSLSASVGDRVTITCRASQGIRSSLAWYQQRPGKAPKLLLSAASILESGVPSRFSGSGSGTDYTLTINGLQPDDFATYYCQQYYVTPGITFGGGTKVEIR
≤ 550 ng/ml

Tell us which IC50 (pVNT) value is on record for Ab46 (10x-L8N-c63) (antibody, V domains shown) VH: QVHLVQSGAEVKKPGSSVKVSCKASGGTFSSHTVSWVRQAPGQGLEWMGRIIPPFGIVNYAQKFQGRVTITADESTSTAYMELSSLSSEDTAVYYCARSNVVVVTEAGWFDPWGQGTLVTVSS VL: DIQMTQSPSSVSASVGDRVTITCRASQGISSSLAWYQQKPGKAPKVLIFDASTLQSGVPSRFSGSGSGTDFTLTISNLRPEDFATYYCQQAHSFPFTFGPGTKVDIK
≤ 550 ng/ml

Tell us which IC50 (pVNT) value is on record for Ab1 (B11.2) (antibody, V domains shown) VH: EVQLVESGGGLVQPGGSLRLSCAASEIIVSRNYMTWVRQAPGKGLEWLAVLYAGGSSFYADSVKGRFTISRDNSKNTLFLQMNSLRAEDTAVYYCARDLSLSGGFDYWGQGALVTVSS VL: DIQLTQSPSFLSASVGDRVTITCRASQGISNYLAWYQQNPGKAPKLLIYAVSTLHSGVPSRFSGSGSGTEFTLTISSLQPEDFATYYCQHLNTDSCTFGQGTKLEIK
≤ 300 ng/ml
